target: rNav1.2 sodium channels (Rattus norvegicus, UniProt P04775); construct: host or cells: HEK-293; experiment: QPatch automated patch clamp, inhibition of sodium currents evoked by 5 Hz trains at three extracellular pH values; assay type: cell-based; conditions: pH 7.3/8.6; cc 300 mM
Sequence (P04775 whole entry): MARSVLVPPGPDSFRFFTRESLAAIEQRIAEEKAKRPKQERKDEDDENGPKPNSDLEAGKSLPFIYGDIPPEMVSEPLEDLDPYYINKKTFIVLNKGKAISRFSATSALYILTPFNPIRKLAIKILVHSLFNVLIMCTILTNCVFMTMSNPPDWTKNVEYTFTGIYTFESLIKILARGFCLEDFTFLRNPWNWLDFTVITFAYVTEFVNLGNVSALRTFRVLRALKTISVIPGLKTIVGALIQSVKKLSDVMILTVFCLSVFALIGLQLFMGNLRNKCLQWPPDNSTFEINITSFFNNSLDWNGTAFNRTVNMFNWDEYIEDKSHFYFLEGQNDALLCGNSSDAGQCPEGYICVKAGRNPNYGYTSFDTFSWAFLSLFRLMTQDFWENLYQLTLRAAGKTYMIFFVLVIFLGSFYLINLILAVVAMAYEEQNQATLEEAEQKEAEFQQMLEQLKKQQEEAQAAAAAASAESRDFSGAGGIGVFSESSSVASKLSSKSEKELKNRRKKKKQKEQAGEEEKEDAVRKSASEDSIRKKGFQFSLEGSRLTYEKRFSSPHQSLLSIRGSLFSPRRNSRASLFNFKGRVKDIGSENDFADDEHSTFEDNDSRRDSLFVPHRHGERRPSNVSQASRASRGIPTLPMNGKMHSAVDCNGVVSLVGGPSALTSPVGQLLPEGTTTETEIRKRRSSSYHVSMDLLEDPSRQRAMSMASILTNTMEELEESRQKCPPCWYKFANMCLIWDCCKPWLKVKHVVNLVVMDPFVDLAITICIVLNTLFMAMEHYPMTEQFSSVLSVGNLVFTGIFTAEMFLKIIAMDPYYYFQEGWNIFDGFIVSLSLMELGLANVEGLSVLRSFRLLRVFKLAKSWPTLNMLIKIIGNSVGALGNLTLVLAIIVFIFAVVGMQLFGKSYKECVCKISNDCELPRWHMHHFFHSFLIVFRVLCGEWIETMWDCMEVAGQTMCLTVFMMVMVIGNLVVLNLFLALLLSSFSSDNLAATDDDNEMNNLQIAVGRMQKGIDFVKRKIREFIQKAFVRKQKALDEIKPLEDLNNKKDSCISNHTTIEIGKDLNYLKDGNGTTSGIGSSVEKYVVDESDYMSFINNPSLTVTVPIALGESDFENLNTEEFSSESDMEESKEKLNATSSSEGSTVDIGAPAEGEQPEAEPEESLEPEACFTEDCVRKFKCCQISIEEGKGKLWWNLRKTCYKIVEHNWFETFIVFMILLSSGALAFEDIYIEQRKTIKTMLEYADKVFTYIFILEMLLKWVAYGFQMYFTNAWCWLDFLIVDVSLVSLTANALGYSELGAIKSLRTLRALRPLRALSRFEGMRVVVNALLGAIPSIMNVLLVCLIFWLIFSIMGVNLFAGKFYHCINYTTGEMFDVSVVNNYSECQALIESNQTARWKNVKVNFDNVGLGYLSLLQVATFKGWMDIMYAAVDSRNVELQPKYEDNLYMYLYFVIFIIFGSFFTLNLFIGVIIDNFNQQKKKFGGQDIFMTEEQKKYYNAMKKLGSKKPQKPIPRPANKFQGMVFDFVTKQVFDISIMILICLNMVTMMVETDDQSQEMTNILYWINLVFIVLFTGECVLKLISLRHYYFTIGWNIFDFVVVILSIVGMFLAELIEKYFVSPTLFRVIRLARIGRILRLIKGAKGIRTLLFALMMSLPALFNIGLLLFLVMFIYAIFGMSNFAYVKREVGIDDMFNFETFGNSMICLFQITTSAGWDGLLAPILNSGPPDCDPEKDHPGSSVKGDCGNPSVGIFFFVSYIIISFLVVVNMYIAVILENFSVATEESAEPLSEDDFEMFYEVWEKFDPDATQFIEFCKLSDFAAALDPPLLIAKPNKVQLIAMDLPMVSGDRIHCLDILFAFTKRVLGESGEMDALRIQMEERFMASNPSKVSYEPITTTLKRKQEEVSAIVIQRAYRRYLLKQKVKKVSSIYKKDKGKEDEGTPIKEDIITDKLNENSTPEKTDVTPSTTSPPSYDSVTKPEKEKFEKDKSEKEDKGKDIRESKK
log Ratio App Aff below 0.08 gives not satisfied; log Ratio App Aff at or above it gives satisfied.

Take a look at these entries with their results.
- O=C(NCC1CCCCN1)c1cc(OCC(F)(F)F)ccc1OCC(F)(F)F (centres unmarked) [flecainide]: satisfied
- Nc1nnc(-c2cccc(Cl)c2Cl)c(N)n1 [lamotrigine]: not satisfied
- O=C1NC(=O)C(c2ccccc2)(c2ccccc2)N1 [phenytoin]: satisfied
- NC(=O)N1c2ccccc2C=Cc2ccccc21 [carbamazepine]: not satisfied

Please look at the following compound next.
Enquiry: In plain terms: is recorded log Ratio App Aff at least 0.08 for Cc1cccc(C)c1OCC(C)N (centres unmarked) [mexiletine] ?
Return: satisfied

====

# Ratio Tau Offset per record follows
molecular target: rNav1.2 sodium channels (Rattus norvegicus); construct: host or cells: HEK-293; assay: QPatch automated patch clamp, inhibition of sodium currents evoked by 5 Hz trains at three extracellular pH values; format: cell-based; settings: pH 6.0/7.3; cc 300 mM

Enquiry: Fill blank: measured Ratio Tau Offset of the compound `Nc1nnc(-c2cccc(Cl)c2Cl)c(N)n1` is ____.
Return: 1.075

Enquiry: Fill blank: measured Ratio Tau Offset of the compound O=C(NCC1CCCCN1)c1cc(OCC(F)(F)F)ccc1OCC(F)(F)F (centres unmarked) [flecainide] is ____.
Return: 1.344

Enquiry: Fill blank: measured Ratio Tau Offset of the compound Cc1cccc(C)c1OCC(C)N (centres unmarked) is ____.
Return: 1.071

Enquiry: Fill blank: measured Ratio Tau Offset of the compound NC(=O)N1c2ccccc2C=Cc2ccccc21 [carbamazepine] is ____.
Return: 1.229

Enquiry: Fill blank: measured Ratio Tau Offset of the compound `O=C1NC(=O)C(c2ccccc2)(c2ccccc2)N1` is ____.
Return: 1.227

====

molecular target: rNav1.2 sodium channels (Rattus norvegicus); construct: host or cells: HEK-293; test: QPatch automated patch clamp, inhibition of sodium currents evoked by 5 Hz trains at three extracellular pH values; type: cell-based; details: pH 6.0/8.6; cc 30 mM
# Ratio Tau Offset per record follows
Write the number on its own, no unit after it.

- CN(C)CCCN1c2ccccc2Sc2ccc(Cl)cc21: 0.715

Moving on to the next molecule.
Enquiry: Fill blank: measured Ratio Tau Offset of the molecule `CN(C)CCC=C1c2ccccc2CCc2ccccc21` is ____.
Return: 0.838

====

Target: rNav1.2 sodium channels (Rattus norvegicus, UniProt P04775)
Construct: host or cells: HEK-293
Assay: QPatch automated patch clamp, inhibition of sodium currents evoked by 5 Hz trains at three extracellular pH values
Type: cell-based
Conditions: pH 6.0/8.6; cc 100 mM
Method: HEK-293 cells stably expressing rNav1.2 sodium channels were obtained from NeuroSearch (Ballerup, Denmark). The cells were grown in Dulbecco's modified Eagle medium supplemented with 10% FBS. Prior to use, the cells were trypsinized and subsequently kept in suspension in the QPatch cell storage facility in CHO-S- SFM-II medium. […] Data were sampled at a frequency of 25 kHz and filtered at 5 kHz. Junction potential was calculated to be −11 mV and was corrected for. […]
# log Ratio App Aff per record follows

- CCCCN1CCCCC1C(=O)Nc1c(C)cccc1C (stereo not drawn): 0.412
- COc1ccc(C(CN(C)C)C2(O)CCCCC2)cc1 (stereo not drawn): 0.669

Enquiry: Fill blank: measured log Ratio App Aff of the compound `Nc1c(Br)cc(Br)cc1CN[C@H]1CC[C@H](O)CC1` is ____.
Return: 0.494
